List of fold induction at 10 µM values.
Tested on: NRF2
Test: qPCR analysis of NRF2-regulated genes
Assay type: cell-based, human
Details: Homo sapiens; 10 μM, 24 hrs, WI-38 cells, qPCR, normalized to B2M, n = 4; read-out: GSTM1 expression, normalized fold change (NRF2-regulated gene)
Description: For qPCR analysis, WI-38 cells were treated with small molecules (at 10 μM) (biological quadruplicates) for 24 hrs and processed for RNA isolation and reverse transcription (RT) with the Cells-to-Ct Kit (Life Technologies), following manufacturer's instructions. RT products were diluted with H2O and used for qPCR analysis on an ABI 7300 system (Life Technologies) (technical triplicates). Relative expression levels of target genes were normalized to the genes B2M, PPIA and GAPDH. […]
measurement-label: fold induction at 10 µM

1) COc1ccc(C(=O)/C=C/c2cccc(Cl)c2)c(OC)c1 [Gr-4C]	1.63
2) COc1cccc(/C=C2\CN(C)C/C(=C\c3cccc(OC)c3OC)C2=O)c1OC [O23]	0.6
3) COc1ccc(/C=C2\SC(=N)N(c3nccs3)C2=O)cc1 [O21]	1.25

----------
Recorded R = Potential DNA damaging, one value per entry.
system: phosphorylated γH2A.X and TP53BP1; experiment: DNA damage marker analysis (immuno-staining); details: human, 24 h
measurement-label: R = Potential DNA damaging

1. Oc1ncnc2sc3c(c12)CCC3	0
2. O=C(Nc1nc(C23CC4CC(CC(C4)C2)C3)cs1)C(c1ccccc1)c1ccccc1	0
3. Cc1cc(C)c(C(=O)/C=C/c2ccccc2F)c(O)n1	0

----------
test system: WI-38 cells; assay: MMS resistance assay; assay type: cell-based, human; conditions: Homo sapiens, 12 h; Exp. 1, WI-38 cells, 10 uM, normalized ATP measurement; read-out: Exp. 1, under MMS stress treatment, at 10 uM (fold change)
The entries below are paired with their reported fold induction at 10 µM.
measurement-label: fold induction at 10 µM

1) CCCN1C/C(=C\c2ccc(F)cc2)C(=O)/C(=C/c2ccc(F)cc2)C1	0.16
2) NS(=O)(=O)c1ccc(NC(=O)c2ccc([N+](=O)[O-])o2)cc1	0.72
3) Cc1ccc(S(=O)(=O)Nc2cccc3cccnc23)cc1	1.72

----------
tested on: FOXO3; test: qPCR analysis of FOXO3-regulated genes; type: cell-based, human; conditions: Homo sapiens, 24 h; Assay 10(m); at 10 uM, qPCR; read-out: Induction of FOXO3-regulated genes: CAT normalized fold-change
# fold induction at 10 µM per record follows
measurement-label: fold induction at 10 µM

1) NS(=O)(=O)c1ccc(NC(=O)c2ccc([N+](=O)[O-])o2)cc1	1.36
2) CCc1ccccc1NC(=O)c1ccc([N+](=O)[O-])o1	1.41
3) COC(=O)CCc1sc2c(c1[N+](=O)[O-])NC(=O)CCC2	1.35
4) O=C(Nc1cc(C(F)(F)F)ccc1Cl)c1ccc([N+](=O)[O-])o1	1.4
5) CCCC(=O)Nc1ccc(-c2cn3cccc(C)c3n2)cc1	0.82
6) CCCN1C/C(=C\c2ccc(F)cc2)C(=O)/C(=C/c2ccc(F)cc2)C1	1.28
7) O=C(/C(=C/c1ccc(Cl)cc1)c1nc2ccccc2[nH]1)c1ccccc1	1.37
8) O=C(c1ccc([N+](=O)[O-])o1)N1CCc2ccccc21	1.33
9) O=[N+]([O-])c1ccccc1S(=O)(=O)Nc1cccc2cccnc12	0.83
10) COc1ccc(C(=O)/C=C/c2cccc(Cl)c2)c(OC)c1	1.19
